Reported IgM binding (optical density) by item:
# System: serum IgM anti-17-α-hydroxyprogesterone antibodies
# PROTOCOL_SUMMARY: ELISA binding of IgM 17-α-hydroxyprogesterone antibodies to different hormones in solid phase
# Set-up: species or system human
# RECORDED_CONDITIONS: sample 3; hormone in solid phase; 405 nm
# Description: The ELISA inhibition method was used to determine specificity and cross-reactivity between different hormones and to ensure the degree of human IgG, IgM and IgE estrogen or progesterone binding to estrogen or progesterone in solid phase. […] After shaking and incubation for 1 hr at room temperature, addition of enzyme labeled anti-human IgG, IgM or IgE, repeat of incubation, washing, and addition of substrate, color development was measured at 405 nm. […]
MEASURED_METRIC: IgM binding (optical density)

>>> result_number("CC(=O)[C@H]1CC[C@H]2[C@@H]3CCC4=CC(=O)CC[C@]4(C)[C@H]3CC[C@]12C")
0.72
>>> result_number("CC(=O)[C@@]1(O)CC[C@H]2[C@@H]3CCC4=CC(=O)CC[C@]4(C)[C@H]3CC[C@@]21C [HP, 17-α-hydroxy-progesterone]")
0.92
>>> result_number("CC(C)CCC[C@@H](C)[C@H]1CC[C@H]2[C@@H]3CC=C4C[C@@H](O)CC[C@]4(C)[C@H]3CC[C@]12C")
0.15
>>> result_number("C[C@]12CCC(=O)C=C1CC[C@@H]1[C@@H]2[C@@H](O)C[C@@]2(C)[C@H]1CC[C@]2(O)C(=O)CO [HC, Hydrocortisone]")
0.51
